These entries and their values trace back to paper PMC6006426.

Protocol Description: Tissue accumulation (Kp,uu) of TKIs in rat kidney slices
Assay type: in vitro ADME
Assay Conditions: male, Wistar, rat kidney slices (0.3 mm thick), pH 7.4, TKI 1 μM, 120 min, C/M ratio 37 °C / 4 °C, mean ± S.E.M. (n = 3 or 4)
Kind request: treat 3 as inclusive, so Kp uu at 2 h, 1 μM at 3 or higher is 1, anything lower is -1.

>  <Compound>
Cc1ccc(Nc2nccc(N(C)c3ccc4c(C)n(C)nc4c3)n2)cc1S(N)(=O)=O [Pazopanib, pazopanib]

>  <Assigned Label>
-1

$$$$
>  <Compound>
CCN(CC)CCNC(=O)c1c(C)[nH]c(/C=C2\C(=O)Nc3ccc(F)cc32)c1C [Sunitinib, sunitinib]

>  <Assigned Label>
1

$$$$
>  <Compound>
Cc1ccc(NC(=O)c2ccc(CN3CCN(C)CC3)cc2)cc1Nc1nccc(-c2cccnc2)n1 [Imatinib, imatinib]

>  <Assigned Label>
-1

$$$$
>  <Compound>
COc1cc2ncnc(Nc3ccc(F)c(Cl)c3)c2cc1OCCCN1CCOCC1 [Gefitinib, gefitinib]

>  <Assigned Label>
-1

$$$$

Query :: Entry CNC(=O)c1cc(Oc2ccc(NC(=O)Nc3ccc(Cl)c(C(F)(F)F)c3)cc2)ccn1 [Sorafenib, sorafenib] : is its Kp uu at 2 h, 1 μM no less than 3?
Result :: -1

----------
Tgt: human OCT2 (Homo sapiens, UniProt O15244)
Construct: expressed in transfected cells; host or cells: HEK293
Sequence (O15244 whole entry): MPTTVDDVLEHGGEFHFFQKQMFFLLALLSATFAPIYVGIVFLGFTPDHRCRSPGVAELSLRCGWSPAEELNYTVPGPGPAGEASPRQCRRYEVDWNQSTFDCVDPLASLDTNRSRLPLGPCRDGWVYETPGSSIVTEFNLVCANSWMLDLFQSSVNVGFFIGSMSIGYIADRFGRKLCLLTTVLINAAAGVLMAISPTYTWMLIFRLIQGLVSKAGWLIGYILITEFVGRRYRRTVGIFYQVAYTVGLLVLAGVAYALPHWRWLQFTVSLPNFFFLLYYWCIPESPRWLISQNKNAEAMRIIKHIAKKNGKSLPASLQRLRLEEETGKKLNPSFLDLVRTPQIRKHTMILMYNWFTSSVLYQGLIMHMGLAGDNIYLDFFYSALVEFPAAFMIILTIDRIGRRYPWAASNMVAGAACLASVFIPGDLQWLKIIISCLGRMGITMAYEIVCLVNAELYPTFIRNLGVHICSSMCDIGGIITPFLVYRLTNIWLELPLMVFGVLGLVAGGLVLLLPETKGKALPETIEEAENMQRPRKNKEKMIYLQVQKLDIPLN
Protocol Description: Inhibition of [14C]creatinine uptake by HEK293/OCT2 cells
Format: cell-based
Assay Conditions: [14C]creatinine 2.6 μM, 1 min, 37 °C; pre/co-incubation; unit inferred; read-out: IC50 or Ki, OCT2
Recorded Endpoint: IC50 (µM)
Numbers only, in µM.

>  <Smi>
CCN(CC)CCNC(=O)c1c(C)[nH]c(/C=C2\C(=O)Nc3ccc(F)cc32)c1C

>  <Recorded Endpoint>
IC50

>  <Measured>
0.266

$$$$

# input for lookup
Query :: For the record CNC(=O)c1cc(Oc2ccc(NC(=O)Nc3ccc(Cl)c(C(F)(F)F)c3)cc2)ccn1 , what value of IC50 is listed for human OCT2 (Homo sapiens, UniProt O15244)?
Result :: 40.8

----------
Tested on: OCT2 and MATE1
Assay Conditions: based on Cmax,u (Kp,uu assumed 1); mean ± S.D. (n = 11 subjects' parameters from ref 10)
Recorded Endpoint: Prediction of SCr increase, Cmax,u (%)
Give bare numbers, in %.

>  <Compound>
COc1cc2ncnc(Nc3ccc(F)c(Cl)c3)c2cc1OCCCN1CCOCC1 [Gefitinib, gefitinib]

>  <Measured>
2.47

$$$$
>  <Compound>
Cc1ccc(Nc2nccc(N(C)c3ccc4c(C)n(C)nc4c3)n2)cc1S(N)(=O)=O [Pazopanib, pazopanib]

>  <Measured>
1.16

$$$$
>  <Compound>
CCN(CC)CCNC(=O)c1c(C)[nH]c(/C=C2\C(=O)Nc3ccc(F)cc32)c1C [Sunitinib, sunitinib]

>  <Measured>
1.65

$$$$

Each of the following entries comes with a recorded value; kindly state Prediction of SCr increase, Cmax,u for each.
1. CNC(=O)c1cc(Oc2ccc(NC(=O)Nc3ccc(Cl)c(C(F)(F)F)c3)cc2)ccn1 [Sorafenib, sorafenib]
2. C[C@@H](Oc1cc(-c2cnn(C3CCNCC3)c2)cnc1N)c1c(Cl)ccc(F)c1Cl [Crizotinib, crizotinib]

Result ::
[1.47, 14.5]

----------
Exercise: state measured Prediction of SCr increase, Cmax,u · Kp,uu for each of the compounds provided.
Test system: OCT2 and MATE1
Assay Conditions: based on Cmax,u with Kp,uu incorporated; mean ± S.D. (n = 11)
Numbers only, in %.

Completed entries (count: 3):
>  <Compound>
Cc1ccc(Nc2nccc(N(C)c3ccc4c(C)n(C)nc4c3)n2)cc1S(N)(=O)=O [Pazopanib, pazopanib]

>  <Tgt>
OCT2 and MATE1

>  <Measured>
1.86

$$$$
>  <Compound>
CCN(CC)CCNC(=O)c1c(C)[nH]c(/C=C2\C(=O)Nc3ccc(F)cc32)c1C [Sunitinib, sunitinib]

>  <Tgt>
OCT2 and MATE1

>  <Measured>
2.73

$$$$
>  <Compound>
CNC(=O)c1cc(Oc2ccc(NC(=O)Nc3ccc(Cl)c(C(F)(F)F)c3)cc2)ccn1 [Sorafenib, sorafenib]

>  <Tgt>
OCT2 and MATE1

>  <Measured>
3.10

$$$$

Query :: For the record C[C@@H](Oc1cc(-c2cnn(C3CCNCC3)c2)cnc1N)c1c(Cl)ccc(F)c1Cl [Crizotinib, crizotinib] , what value of Prediction of SCr increase, Cmax,u · Kp,uu is listed for OCT2 and MATE1?
Result :: 25.3
